# assay.target: native human MET on living human cells (human, UniProt P08581 25-1390)
# Sequence (P08581 25-1390): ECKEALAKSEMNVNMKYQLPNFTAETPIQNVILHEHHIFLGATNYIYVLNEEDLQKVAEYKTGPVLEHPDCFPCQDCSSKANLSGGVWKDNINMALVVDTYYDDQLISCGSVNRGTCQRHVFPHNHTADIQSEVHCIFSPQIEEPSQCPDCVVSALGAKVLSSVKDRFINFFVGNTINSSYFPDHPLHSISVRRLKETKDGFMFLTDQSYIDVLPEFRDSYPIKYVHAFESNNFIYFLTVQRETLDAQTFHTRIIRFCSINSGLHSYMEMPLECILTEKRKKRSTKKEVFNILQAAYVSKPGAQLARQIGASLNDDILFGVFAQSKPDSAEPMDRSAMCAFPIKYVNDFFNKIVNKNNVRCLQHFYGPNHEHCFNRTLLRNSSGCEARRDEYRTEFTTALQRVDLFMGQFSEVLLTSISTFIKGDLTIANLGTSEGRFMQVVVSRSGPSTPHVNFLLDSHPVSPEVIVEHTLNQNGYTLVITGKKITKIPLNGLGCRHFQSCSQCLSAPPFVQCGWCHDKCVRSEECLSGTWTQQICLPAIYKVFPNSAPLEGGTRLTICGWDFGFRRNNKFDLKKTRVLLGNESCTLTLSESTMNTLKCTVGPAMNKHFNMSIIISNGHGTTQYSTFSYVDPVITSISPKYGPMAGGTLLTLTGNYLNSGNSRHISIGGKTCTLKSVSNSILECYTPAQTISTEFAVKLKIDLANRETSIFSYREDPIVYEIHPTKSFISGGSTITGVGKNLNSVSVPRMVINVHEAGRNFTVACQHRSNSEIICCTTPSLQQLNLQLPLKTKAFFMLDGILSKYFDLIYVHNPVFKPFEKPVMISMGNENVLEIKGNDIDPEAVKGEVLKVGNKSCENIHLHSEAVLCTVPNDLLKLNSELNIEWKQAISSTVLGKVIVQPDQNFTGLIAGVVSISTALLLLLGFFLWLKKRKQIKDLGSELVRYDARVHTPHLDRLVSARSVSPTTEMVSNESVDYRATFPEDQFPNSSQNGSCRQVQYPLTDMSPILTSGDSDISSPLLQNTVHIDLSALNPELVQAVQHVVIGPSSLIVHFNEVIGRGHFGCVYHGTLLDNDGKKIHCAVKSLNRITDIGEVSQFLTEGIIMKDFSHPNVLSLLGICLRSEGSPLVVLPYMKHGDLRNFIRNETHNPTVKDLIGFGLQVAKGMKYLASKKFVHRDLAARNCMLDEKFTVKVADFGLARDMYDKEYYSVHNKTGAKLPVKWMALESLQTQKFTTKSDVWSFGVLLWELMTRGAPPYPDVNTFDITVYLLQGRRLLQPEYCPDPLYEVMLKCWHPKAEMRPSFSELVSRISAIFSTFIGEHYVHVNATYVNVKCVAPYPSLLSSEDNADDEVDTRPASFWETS
# method.summary: cell-based or functional assay
Listed here are binders together with their documented cell scattering score, HPAF-II, 9.000 nM.
Write down the numeric answer in score 0-4 and omit the unit.

Request: Entry chimeric llama-human IgG1 mAb 76G7 (antibody, V domains shown) VH: QVQLVESGGNLVQPGGSLRLSCAASGFTFSNYYMSWVRQAPGKGLEWVSDIYSDGSTTWYSDSVKGRFTISRDNAKNTLSLQMNSLKSEDTAVYYCARVKIYPGGYDAWGQGTQVTVSS VL: QAGLTQPPSVSGSPGKTVTISCAGNSSDVGYGNYVSWYQQFPGMAPKLLIYLVNKRASGITDRFSGSKSGNTASLTISGLQSEDEADYYCASYTGSNNIVFGGGTHLTVL has what cell scattering score, HPAF-II, 9.000 nM?
Response: 3

Request: Param item = chimeric llama-human IgG1 mAb 71A3 (antibody, V domains shown) VH: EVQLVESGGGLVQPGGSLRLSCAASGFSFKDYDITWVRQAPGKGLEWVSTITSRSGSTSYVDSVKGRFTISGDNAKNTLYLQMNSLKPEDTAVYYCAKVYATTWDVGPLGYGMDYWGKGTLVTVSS VL: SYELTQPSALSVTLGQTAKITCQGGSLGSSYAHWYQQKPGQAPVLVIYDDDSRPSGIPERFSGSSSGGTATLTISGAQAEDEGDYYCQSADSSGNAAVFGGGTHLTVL ; retrieve measured cell scattering score, HPAF-II, 9.000 nM.
Response: 4

Request: // lookup cell scattering score, HPAF-II, 9.000 nM for chimeric llama-human IgG1 mAb 71G12 (antibody, V domains shown) VH: QVQLQESGGDLVQPGGSLRVSCVVSGFTFSRYYMSWVRQAPGKGLEWVSSIDSYGYSTYYTDSVKGRFTISRDNAKNTLYLQMNSLKPEDTALYYCARAKTTWSYDYWGQGTQVTVSS VL: EIVLTQSPSSVTASVGGKVTINCKSSQSVFIASNQKTYLNWYQQRPGQSPRLVISYASTRESGIPDRFSGSGSTTDFTLTISSVQPEDAAVYYCQQAYSHPTFGQGTKVELK
Response: 3
